test system: RPMI-8226 leukemia; assay: NCI tumour cell line growth inhibition, 48 h
value.kind: TGI

{"compound": "O=C(CCl)NC(Cc1ccc(F)cc1)C(=O)O (stereo not drawn)", "experimental.target": "RPMI-8226 leukemia", "TGI": "> 100 µM"}

Form field: TGI recorded for O=C(O)C1=C(C(=O)O)N(c2ccncc2)C(c2ccco2)=CC1c1ccccc1[N+](=O)[O-] (stereo not drawn) with RPMI-8226 leukemia (enter value)
> 24.6 µM

Cool, now CO/N=C(/C(=O)N(C(=O)/C(=N/OC)c1csc(NC(c2ccccc2)(c2ccccc2)c2ccccc2)n1)n1cnn(CC(=O)OC(C)(C)C)c1=O)c1csc(NC(c2ccccc2)(c2ccccc2)c2ccccc2)n1
> 10 µM
